Measured excess molar enthalpy accompanies every entry in the list below.
- Assay Method Text: excess molar enthalpy (molar enthalpy of mixing); xn = mol fraction of the nth substance listed
- Details: 298.15 K; 101 kPa; Liquid; Flow calorimetry; x2 = 0.5
Give your result in kcal/mol as a bare value.

Previously resolved entries follow.
{"Compound": "O=C1CCCCC1 [cyclohexanone] + C1CCOCC1", "Outcome Measure": "excess molar enthalpy", "Unit": "kcal/mol", "Obs Value": 0.0207}
{"Compound": "CCCC(C)=O [pentan-2-one] + C1CCOCC1", "Outcome Measure": "excess molar enthalpy", "Unit": "kcal/mol", "Obs Value": 0.0218}
{"Compound": "O=C1CCCC1 [cyclopentanone] + C1CCOCC1", "Outcome Measure": "excess molar enthalpy", "Unit": "kcal/mol", "Obs Value": 0.0377}

With those in mind, consider the next compound.
Quick one: excess molar enthalpy of CCCCCC(C)=O [2-heptanone] + C1CCOCC1 ? 0.0138
